Tested on: SK-MEL-28 melanoma
Test: NCI-60 one-dose screen, 48 h (100 = growth as untreated, 0 = no growth, -100 = all killed)
Conditions: 10 µM unless noted
The panel holds about 83,000 compounds, 20% with a hit somewhere; the sample as a whole holds those more often.
outcomeMeasure: growth (%)
Numeric answer only, unit % assumed.

// below: answered compounds
compound	studySystem	outcomeMeasure	outputUnit	recordedMeasurement
COCCOc1cnc2ccn([C@H](C)c3nnc4c(F)cc(-c5cnn(C)c5)cn34)c(=O)c2c1	SK-MEL-28 melanoma	growth	%	44
O=C(Cn1cncn1)Nc1ccc(-c2nc3ccccc3s2)cc1	SK-MEL-28 melanoma	growth	%	111
C=CCC(=O)N[C@H](/C=C/C(=O)O)Cc1ccc(-c2cc(Cl)cc(Cl)c2)cc1	SK-MEL-28 melanoma	growth	%	112
CC(=O)O[C@]1(C)C[C@H](O)[C@]2(O)C=CO[C@H](O[C@@H]3O[C@H](CO)[C@@H](O)[C@H](O)[C@H]3O)[C@@H]21	SK-MEL-28 melanoma	growth	%	112

[ask] Bench note: what growth did "CN(N)c1nc2sc3c(c2c(=O)[nH]1)CCCC3" show?
[reply] 114

[ask] // repeat for "COC(=O)[C@]12CC[C@@H](C)[C@H](C)[C@@H]1C1=CC[C@@H]3[C@@]4(C)C[C@@H](OC(=O)/C=C/c5ccccc5)[C@H](O)[C@@](C)(CO)[C@@H]4[C@H](O)C[C@@]3(C)[C@]1(C)CC2" and report
[reply] 4.73

[ask] // repeat for "CCNC(=O)C#Cc1ccc2c(C(=Nc3ccc(CN(C)C)cc3)c3ccccc3)c(O)[nH]c2c1" and report
[reply] -11.6

[ask] // repeat for "COc1cc(-c2nc(C(=O)Nc3ccc(C)cc3)nn2-c2ccc(F)c(F)c2)cc(OC)c1OC" and report
[reply] 108

[ask] // repeat for "Cc1ncc(-c2ccnc(Nc3ccc(S(C)(=O)=O)cc3)n2)n1C(C)C" and report
[reply] -41.8

[ask] // repeat for O=C(O)C1(Cc2cccc(Nc3nccs3)n2)CCC(Oc2cccc(Cl)c2F)CC1 (stereo not drawn) and report
[reply] 88.4

[ask] // repeat for "CN1CC[C@@H](c2c(O)cc(O)c3c(=O)cc(-c4ccccc4Cl)oc23)[C@@H]1CO" and report
[reply] -25.6

[ask] // repeat for "Cc1cc(Nc2ncnc3ccc(NC4=NC(C)(C)CO4)cc23)ccc1Oc1ccn2ncnc2c1" and report
[reply] 12.9

[ask] // repeat for "COc1ccc2c(CCC(c3ccccc3)c3ccccc3)c3[n+](cc2c1OC)CCc1cc2c(cc1-3)OCO2" and report
[reply] 3.87

[ask] // repeat for "O=C(Cc1ccc(/C=C/C(=O)c2ncc[nH]2)cc1)Nc1ccc(S(F)(F)(F)(F)F)cc1" and report
[reply] 100

[ask] // repeat for COC(=O)C1=C(C(=O)OC)C23C=C(C)C1C2=C(C)C1(CC1)[C@@](C)(O)C3=O (stereo partly drawn) and report
[reply] -22.5

[ask] // repeat for "Cc1cc2c3c(cccc3c1)C(=O)c1ccccc1-2" and report
[reply] 105
